System: Staphylococcus aureus 209P
Assay: Minimal inhibitory concentration, standard agar dilution method (Staphylococcus aureus)
Format: cell-based
Conditions: Staphylococcus aureus 209P; agar dilution, 18 hours at 37° C.; Examples 1, 2, 5 as sodium salts, Example 4 as free acid; read-out: MIC
Protocol: Minimal inhibitory concentration (MIC) was determined by the standard agar dilution method of the Japan Society of Chemotherapy. […] Test organisms were grown for 18 hours at 37° C. in Trypticase Soy broth and diluted in saline to approximately 10^6 colony forming units per ml. A loopful of each cell suspension was applied on the agar plate mentioned above and the plates were incubated for 18 hours at 37° C. before MIC was determined. […]
Below: a set of entries, each annotated with reported MIC.
Write the figure, then the unit, nothing else.

Some solved entries appear below for comparison.
CC(=O)OCC1=C(C(=O)O)N2C(=O)[C@@H](NC(=O)[C@H](N)c3ccccc3)[C@H]2SC1 [Cephaloglycin, cephaloglycin, reference compound]	0.8 µg/mL
CC(=O)OCC1=C(C(=O)O)N2C(=O)[C@@H](NC(=O)[C@H](NC(=O)c3coc4c(OC(C)=O)c(OC(C)=O)ccc4c3=O)c3ccccc3)[C@H]2SC1	1.56 µg/mL
CC(=O)OCC1=C(C(=O)O)N2C(=O)[C@@H](NC(=O)[C@H](NC(=O)c3coc4cc(OC(C)=O)c(OC(C)=O)cc4c3=O)c3ccccc3)[C@H]2SC1	3.13 µg/mL
CC(=O)OCC1=C(C(=O)O)N2C(=O)[C@@H](NC(=O)[C@H](NC(=O)c3coc4c(O)c(O)ccc4c3=O)c3ccccc3)[C@H]2SC1	1.56 µg/mL

--- query ---
Qu. MIC lookup needed for CC(=O)OCC1=C(C(=O)O)N2C(=O)[C@@H](NC(=O)[C@H](NC(=O)c3coc4cc(O)c(O)cc4c3=O)c3ccccc3)[C@H]2SC1 , thanks.
Ans. 1.56 µg/mL
